Tested on: Pseudomonas fluorescens HPPD polypeptide (wild-type and mutants)
Method description: Coupled HPPD activity assay: turnover and residual turnover in crude HPPD polypeptide extracts with and without Cmpd. 1
Assay type: biochemical
Measurement conditions: 100 μM Cmpd. 1, normalised to turnover without inhibitor
Description: For the generation of crude HPPD polypeptide extract in micro titer plates (MTP) for the determination of residual activity in inhibition assays, cells were grown in 40 or 150 μl LB medium containing 1% Glucose (Merck, Darmstadt, Germany) and 100 μg/ml ampicillin in a standard 96 well plate (Thermo Fisher Scientific, Waltham, USA) incubated for about 18 h in a humidity incubator at 37° C. […]
This listing pairs molecules with measured Residual turnover [%].

Molecule: SEQ ID NO:49 (protein, mutant HPPD polypeptide) MADLYENPMGLMGFEFIEFASPTPGTLEPIFEIMGFTKVATHRSKNVHLYRQGEINLILNNEPNSIASYFAAEHGPSVCGMAFRVKDSQKAYNRALELGAQPIHIDTGPMELNLPAIKGIGGAPLYLIDRFGEGSSIYDIDFVYLEGVERNPVGAGLKVIDHLTHNVYRGRMVYWANFYEKLFNFREARYFDIKGEYTGLTSKAMSAPDGMIKIPLNEESSKGAGQIEEFLMQFNGEGIQHVAFLTDDLVKTWDALKKIGMRFMTAPGDEYYEMLEGRLPDHGEPVDQLQARGILLDGSSVEGDKRLLLQIFSEQLMGPVFFEFIQRKGDDGFGPHSFKVLFESIERDQVRRGVLTAD
Residual turnover [%] [%]: 52
//
Molecule: SEQ ID NO:57 (protein, mutant HPPD polypeptide) MADLYENPMGLMGFEFIEFASPTPGTLEPIFEIMGFTKVATHRSKNVHLYRQGEINLILNNEPNSIASYFAAEHGPSVCGMAFRVKDSQKAYNRALELGAQPIHIDTGPMELNLPAIKGIGGAPLYLIDRFGEGSSIYDIDFVYLEGVERNPVGAGLKVIDHLTHNVYRGRMVYWANFYEKLFNFREARYFDIKGEYTGLTSKAMSAPDGMIKIPLNEESSKGAGQIEEFLMQFNGEGIQHVAFLTDDLVKTWDALKKIGMRFMTAPGDEYYEMLEGRLPDHGEPVDQLQARGILLDGSSVEGDKRLLLQIFSEQLMGPVFFEFIQRKGDDGFGPHSFKVLFEQMERDQVRRGVLTAD
Residual turnover [%] [%]: 68
//
Molecule: SEQ ID NO:19 (protein, mutant HPPD polypeptide) MADLYENPMGLMGFEFIEFASPTPGTLEPIFEIMGFTKVATHRSKNVHLYRQGEINLILNNEPNSIASYFAAEHGPSVCGMAFRVKDSQKAYNRALELGAQPIHIDTGPMELNLPAIKGIGGAPLYLIDRFGEGSSIYDIDFVYLEGVERNPVGAGLKVIDHLTHNVYRGRMVYWANFYEKLFNFREARYFDIKGEYTGLTSKAMSAPDGMIRIPLNEESSKGAGQIEEFLMQFNGEGIQHVAFLTDDLVKTWDALKKIGMRFMTAPGDEYYEMLEGRLPDHGEPVDQLQARGILLDGSSVEGDKRLLLQIFSEQLMGPVFFEFIQRKGDDGFGPDSFKVLFEQMERDQVRRGVLTAD
Residual turnover [%] [%]: 40
//
Molecule: SEQ ID NO:18 (protein, mutant HPPD polypeptide) MADLYENPMGLMGFEFIEFASPTPGTLEPIFEIMGFTKVATHRSKNVHLYRQGEINLILNNEPNSIASYFAAEHGPSVCGMAFRVKDSQKAYNRALELGAQPIHIDTGPMELNLPAIKGIGGAPLYLIDRFGEGSSIYDIDFVYLEGVERNPVGAGLKVIDHLTHNVYRGRMVYWANFYEKLFNFREARYFDIKGEYTGLTSKAMSAPDGMIRIPLNEESSKGAGQIEEFLMQFNGEGIQHVAFLTDDLVKTWDALKKIGMRFMTAPGDEYYEMLEGRLPDHGEPVDQLQARGILLDGSSVEGDKRLLLQIFSEKLMGPVFFEFIQRKGDDGFGPDSFKVLFEQMERDQVRRGVLTAD
Residual turnover [%] [%]: 41
